Test: In vivo pharmacokinetics in CD-1 mice
Set-up: species or system mouse
Conditions: male, CD-1, mouse, plasma, iv, 5 mg/kg, intravenous 5 mg/kg, 20% DMA: 40% PEG300: 40% H2O
Documented MRT inf across a set of molecules

{"columns": ["Line Notation", "Unit Spec", "MRT inf"],
 "data": [
  ["CC(C)CCNC1=CC(=O)c2ccccc2C1=O", "h", 0.874],
  ["CCC#CCNC1=CC(=O)c2ccccc2C1=O", "h", 4.28]
]}

====

Experiment: In vivo pharmacokinetics in CD-1 mice
Settings: male, CD-1, mouse, plasma, ip, 20 mg/kg, intraperitoneal 20 mg/kg, 5% DMSO: 95% neobee
Assay Metric: Tmax

{"columns": ["Compound", "Data Value"],
 "data": [
  ["CC(C)CCNC1=CC(=O)c2ccccc2C1=O [Compound 17, 2-(Isopentylamino)naphthalene-1,4-dione]", "1 h"],
  ["CCC#CCNC1=CC(=O)c2ccccc2C1=O [Compound 3]", "1 h"]
]}
